assay: Metabolic stability in human liver microsomes assessed as intrinsic clearance; assay type: ADME, Microsome; conditions: liver microsomes, read-out: CLH
Quick reference: microsomal CLint of the listed items.

As a guide, the following entries are already answered.
[[record]]
molecule = "NC1CCN(C(=O)O[C@H]2CCC[C@@]3(C2)OOC2(O3)C3CC4CC(C3)CC2C4)CC1 (stereo partly drawn)"
outcome_measure = "microsomal CLint"
result = "11.8 µL/min/mg"

[[record]]
molecule = "CC(C)(CN)CNC(=O)O[C@H]1CCC[C@@]2(C1)OOC1(O2)C2CC3CC(C2)CC1C3 (stereo partly drawn)"
outcome_measure = "microsomal CLint"
result = "21.4 µL/min/mg"

[[record]]
molecule = "CC(C)(CN)CNC(=O)O[C@@H]1CCC[C@]2(C1)OOC1(O2)C2CC3CC(C2)CC1C3 (stereo partly drawn)"
outcome_measure = "microsomal CLint"
result = "14.3 µL/min/mg"

[[record]]
molecule = "O=C(O[C@@H]1CCC[C@]2(C1)OOC1(O2)C2CC3CC(C2)CC1C3)N1CCNCC1 (stereo partly drawn)"
outcome_measure = "microsomal CLint"
result = "39.4 µL/min/mg"

[[record]]
molecule = "CC(C)(N)CNC(=O)O[C@H]1CCC[C@@]2(C1)OOC1(O2)C2CC3CC(C2)CC1C3 (stereo partly drawn)"
outcome_measure = "microsomal CLint"
result = "< 11.5 µL/min/mg"


I'd like to know its microsomal CLint. The molecule in question is CC(C)(N)CNC(=O)C[C@H]1CC[C@]2(CC1)OO[C@]1(O2)C2CC3CC(C2)CC1C3
< 7 µL/min/mg

Here is the next molecule: CC(C)(N)CNC(=O)O[C@@H]1CCC[C@]2(C1)OOC1(O2)C2CC3CC(C2)CC1C3 (stereo partly drawn)
12.8 µL/min/mg

Here is the next molecule: NC1(CNC(=O)O[C@@H]2CCC[C@]3(C2)OOC2(O3)C3CC4CC(C3)CC2C4)CC1 (stereo partly drawn)
41.7 µL/min/mg

* * *

experiment: Metabolic stability in human liver microsomes assessed as intrinsic clearance; assay type: ADME, Microsome; settings: microsomes
OUTCOME_MEASURE: microsomal intrinsic clearance (µL/min/mg)
Write down the numeric answer in µL/min/mg and omit the unit.

As a guide, the following entries are already answered.
[[record]]
compound = "NC1(CNC(=O)O[C@H]2CCC[C@@]3(C2)OOC2(O3)C3CC4CC(C3)CC2C4)CCCC1 (some centres undefined)"
measure_unit = "µL/min/mg"
result = 25.3

[[record]]
compound = "N=S(=O)(CCNC(=O)O[C@@H]1CCC[C@]2(C1)OOC1(O2)C2CC3CC(C2)CC1C3)C1CC1 (some centres undefined)"
measure_unit = "µL/min/mg"
result = 435

[[record]]
compound = "NC1(CNC(=O)O[C@@H]2CCC[C@]3(C2)OOC2(O3)C3CC4CC(C3)CC2C4)CCCC1 (some centres undefined)"
measure_unit = "µL/min/mg"
result = 29.9


I'd like to know its microsomal intrinsic clearance. The compound in question is CS(=N)(=O)CCNC(=O)O[C@@H]1CCC[C@]2(C1)OOC1(O2)C2CC3CC(C2)CC1C3 (some centres undefined)
243

Here is the next compound: NCCC1CCN(C(=O)O[C@H]2CCC[C@@]3(C2)OOC2(O3)C3CC4CC(C3)CC2C4)CC1 (some centres undefined)
92.7

Here is the next compound: O=C(NCC1(O)COC1)O[C@@H]1CCC[C@]2(C1)OOC1(O2)C2CC3CC(C2)CC1C3 (some centres undefined)
76.2

Here is the next compound: CCC1(O)CN(C(=O)O[C@H]2CCC[C@@]3(C2)OOC2(O3)C3CC4CC(C3)CC2C4)C1 (some centres undefined)
638

Here is the next compound: N[C@@H]1CCN(C(=O)O[C@H]2CCC[C@@]3(C2)OOC2(O3)C3CC4CC(C3)CC2C4)C1 (some centres undefined)
58.7

Here is the next compound: NC1(CNC(=O)O[C@H]2CCC[C@@]3(C2)OOC2(O3)C3CC4CC(C3)CC2C4)COC1 (some centres undefined)
135

* * *

Quick reference: Survival of the listed items.
system: Plasmodium berghei; experiment: Antiplasmodial activity against Plasmodium berghei infected in female Swiss Webster mouse model assessed as survival at 10 mg/kg, po administered once daily for 2 days and measured upto 30 days; type: functional; settings: time 30 day
Write down the numeric answer in days and omit the unit.

[[record]]
molecule = "NC1(CNC(=O)O[C@H]2CCC[C@@]3(C2)OOC2(O3)C3CC4CC(C3)CC2C4)CCC1 (some centres undefined)"
outcome_measure = "Survival"
measure_unit = "days"
result = 13

[[record]]
molecule = "CC1(O)CN(C(=O)O[C@@H]2CCC[C@]3(C2)OOC2(O3)C3CC4CC(C3)CC2C4)C1 (some centres undefined)"
outcome_measure = "Survival"
measure_unit = "days"
result = 7

[[record]]
molecule = "NCCNC(=O)O[C@H]1CCC[C@@]2(C1)OOC1(O2)C2CC3CC(C2)CC1C3 (some centres undefined)"
outcome_measure = "Survival"
measure_unit = "days"
result = 30

[[record]]
molecule = "NC1(CNC(=O)O[C@@H]2CCC[C@]3(C2)OOC2(O3)C3CC4CC(C3)CC2C4)CCCC1 (some centres undefined)"
outcome_measure = "Survival"
measure_unit = "days"
result = 11

[[record]]
molecule = "CC(C)(N)CNC(=O)O[C@H]1CCC[C@@]2(C1)OOC1(O2)C2CC3CC(C2)CC1C3 (some centres undefined)"
outcome_measure = "Survival"
measure_unit = "days"
result = 30


I'd like to know its Survival. The molecule in question is NC1(CNC(=O)O[C@H]2CCC[C@@]3(C2)OOC2(O3)C3CC4CC(C3)CC2C4)CC1 (some centres undefined)
11

Here is the next molecule: O=C(NCC1(O)COC1)O[C@@H]1CCC[C@]2(C1)OOC1(O2)C2CC3CC(C2)CC1C3 (some centres undefined)
6

Here is the next molecule: CC(C)(N)CNC(=O)C[C@H]1CC[C@]2(CC1)OO[C@]1(O2)C2CC3CC(C2)CC1C3
14

Here is the next molecule: N=S(=O)(CCNC(=O)O[C@H]1CCC[C@@]2(C1)OOC1(O2)C2CC3CC(C2)CC1C3)C1CC1 (some centres undefined)
6

Here is the next molecule: N[C@@H]1CCCN(C(=O)O[C@@H]2CCC[C@]3(C2)OOC2(O3)C3CC4CC(C3)CC2C4)C1 (some centres undefined)
12

Here is the next molecule: O=C(NCC1(O)COC1)O[C@H]1CCC[C@@]2(C1)OOC1(O2)C2CC3CC(C2)CC1C3 (some centres undefined)
6

Here is the next molecule: NC1(CNC(=O)O[C@@H]2CCC[C@]3(C2)OOC2(O3)C3CC4CC(C3)CC2C4)CCC1 (some centres undefined)
13

Here is the next molecule: NC1(CNC(=O)O[C@H]2CCC[C@@]3(C2)OOC2(O3)C3CC4CC(C3)CC2C4)COC1 (some centres undefined)
9

* * *

test: Metabolic stability in human liver microsomes assessed as intrinsic clearance; assay type: ADME, Microsome; conditions: microsomes
Lab note: compare microsomal intrinsic clearance against 100 µL/min/mg. Equal or greater, write yes (1). Smaller, write no (0).

The examples below pair each entry with its known result.
[[record]]
compound = "O=C(O[C@H]1CCC[C@@]2(C1)OOC1(O2)C2CC3CC(C2)CC1C3)N1CCNCC1 (some centres undefined)"
discrete_label = "yes (1)"

[[record]]
compound = "C[S+]([O-])C1CN(C(=O)O[C@@H]2CCC[C@]3(C2)OOC2(O3)C3CC4CC(C3)CC2C4)C1 (some centres undefined)"
discrete_label = "yes (1)"

[[record]]
compound = "NC1(CNC(=O)O[C@H]2CCC[C@@]3(C2)OOC2(O3)C3CC4CC(C3)CC2C4)CCC1 (some centres undefined)"
discrete_label = "no (0)"


Now for a further compound.
Given the entry NCC1CCN(C(=O)O[C@H]2CCC[C@@]3(C2)OOC2(O3)C3CC4CC(C3)CC2C4)CC1 (some centres undefined) , answer whether its microsomal intrinsic clearance meets or surpasses 100 µL/min/mg.
no (0)

* * *

experiment: Solubility of the compound in PBS buffer at pH 7.4; type: physicochemical
OUTCOME_MEASURE: log10 solubility kinetic (log10 of the value in µM)
Kindly note that the scale is log10 and the underlying solubility kinetic is in µM.

As a guide, the following entries are already answered.
[[record]]
compound = "NC1(CNC(=O)O[C@H]2CCC[C@@]3(C2)OOC2(O3)C3CC4CC(C3)CC2C4)CCC1 (stereo partly specified)"
outcome_measure = "log10 solubility kinetic"
result = 2.21

[[record]]
compound = "CC(C)C1(O)CN(C(=O)O[C@@H]2CCC[C@]3(C2)OOC2(O3)C3CC4CC(C3)CC2C4)C1 (stereo partly specified)"
outcome_measure = "log10 solubility kinetic"
result = 1.20

[[record]]
compound = "CS(=N)(=O)C1CN(C(=O)O[C@@H]2CCC[C@]3(C2)OOC2(O3)C3CC4CC(C3)CC2C4)C1 (stereo partly specified)"
outcome_measure = "log10 solubility kinetic"
result = 2.43

[[record]]
compound = "NC1(CNC(=O)O[C@H]2CCC[C@@]3(C2)OOC2(O3)C3CC4CC(C3)CC2C4)CC1 (stereo partly specified)"
outcome_measure = "log10 solubility kinetic"
result = 2.16

[[record]]
compound = "NCCNC(=O)O[C@H]1CCC[C@@]2(C1)OOC1(O2)C2CC3CC(C2)CC1C3 (stereo partly specified)"
outcome_measure = "log10 solubility kinetic"
result = 2.16


I'd like to know its log10 solubility kinetic. The compound in question is C[S+]([O-])C1CN(C(=O)O[C@H]2CCC[C@@]3(C2)OOC2(O3)C3CC4CC(C3)CC2C4)C1 (stereo partly specified)
2.26

Here is the next compound: O=C(O[C@H]1CCC[C@@]2(C1)OOC1(O2)C2CC3CC(C2)CC1C3)N1CCNCC1 (stereo partly specified)
2.22

Here is the next compound: CS(=O)(=O)C1CN(C(=O)O[C@H]2CCC[C@@]3(C2)OOC2(O3)C3CC4CC(C3)CC2C4)C1 (stereo partly specified)
1.91

Here is the next compound: CS(=O)(=O)C1CN(C(=O)O[C@@H]2CCC[C@]3(C2)OOC2(O3)C3CC4CC(C3)CC2C4)C1 (stereo partly specified)
1.82

Here is the next compound: CC(C)(CN)CNC(=O)O[C@H]1CCC[C@@]2(C1)OOC1(O2)C2CC3CC(C2)CC1C3 (stereo partly specified)
2.21

Here is the next compound: CS(=N)(=O)CCNC(=O)O[C@H]1CCC[C@@]2(C1)OOC1(O2)C2CC3CC(C2)CC1C3 (stereo partly specified)
2.11

Here is the next compound: CN1CCN(C(=O)O[C@H]2CCC[C@@]3(C2)OOC2(O3)C3CC4CC(C3)CC2C4)CC1 (stereo partly specified)
2.04

Here is the next compound: NC1(CNC(=O)O[C@H]2CCC[C@@]3(C2)OOC2(O3)C3CC4CC(C3)CC2C4)COC1 (stereo partly specified)
1.94

Here is the next compound: N[C@@H]1CCCN(C(=O)O[C@@H]2CCC[C@]3(C2)OOC2(O3)C3CC4CC(C3)CC2C4)C1 (stereo partly specified)
1.87

Here is the next compound: CCC1(O)CN(C(=O)O[C@@H]2CCC[C@]3(C2)OOC2(O3)C3CC4CC(C3)CC2C4)C1 (stereo partly specified)
1.77

Here is the next compound: O=C(O[C@@H]1CCC[C@]2(C1)OOC1(O2)C2CC3CC(C2)CC1C3)N1CCNCC1 (stereo partly specified)
2.16
